Item-by-item account of viability, T/C
Tested on: 945468-187-T-J3-PDC spheroids with HUVEC/MSC, viability
Assay summary: Anticancer human tumor 945468-187-T-J3-PDC patient-derived rectal carcinoma cell line growth inhibition [PI3K]
Condition: second compound 1 µM; first compound 1 µM; hits give low values
Readout: viability, T/C (%)

1. CC(Cn1ccc(-c2ccc(C#N)c(Cl)c2)n1)NC(=O)c1cc(C(C)O)[nH]n1 (stereo not given) + Cc1nc(NC(=O)N2CCCC2C(N)=O)sc1-c1ccnc(C(C)(C)C(F)(F)F)c1
112
2. CC1(C)CCC(Nc2ncc(C(F)(F)F)c(-c3c[nH]c4c(P(C)(C)=O)c(C#N)ccc34)n2)CN1 (stereo not given) + Cc1nc(NC(=O)N2CCCC2C(N)=O)sc1-c1ccnc(C(C)(C)C(F)(F)F)c1
86.7
3. CC1(C)CCC(CN2CCN(c3ccc(C(=O)NS(=O)(=O)c4ccc(NCC5CCOCC5)c([N+](=O)[O-])c4)c(Oc4cnc5[nH]ccc5c4)c3)CC2)=C(c2ccc(Cl)cc2)C1 + COc1c(OCCCN2CCOCC2)ccc2c3n(c(=NC(=O)c4cnc(N)nc4)nc12)CCN3
19.7
4. CNC(=O)c1ccc(N2C(=S)N(c3ccc(C#N)c(C(F)(F)F)c3)C(=O)C2(C)C)cc1F + CC(Nc1ncnc2nc[nH]c12)c1cc2cccc(Cl)c2c(=O)n1-c1ccccc1
106
5. C=CC(=O)N1CCN(c2nc(=O)n(-c3c(C)ccnc3C(C)C)c3nc(-c4c(O)cccc4F)c(F)cc23)C(C)C1 (stereo not given) + CC(Nc1ncnc2nc[nH]c12)c1cc2cccc(Cl)c2c(=O)n1-c1ccccc1
94.1

* * *

Item-by-item account of viability, T/C
Test system: 945468-187-T-J3-PDC spheroids with HUVEC/MSC, viability
Assay summary: Anticancer human tumor 945468-187-T-J3-PDC cell line growth inhibition [PI3K];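 note: spheroids exposed to agents for 7 days before viability read; 100% = DMSO vehicle control viability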
Condition: second compound 3.16 µM; first compound 0.0316 µM; hits give low values
Readout: viability, T/C (%)

1) CC(=O)c1c(C)c2cnc(Nc3ccc(N4CCNCC4)cn3)nc2n(C2CCCC2)c1=O + Cc1nc(NC(=O)N2CCCC2C(N)=O)sc1-c1ccnc(C(C)(C)C(F)(F)F)c1
90.7
2) CC(Cn1ccc(-c2ccc(C#N)c(Cl)c2)n1)NC(=O)c1cc(C(C)O)[nH]n1 (stereo unspecified) + Cc1nc(NC(=O)N2CCCC2C(N)=O)sc1-c1ccnc(C(C)(C)C(F)(F)F)c1
104
3) Cn1nccc1Nc1nccc(-c2ccn(C(CO)c3ccc(Cl)c(F)c3)c(=O)c2)n1 (stereo unspecified) + Cc1nc(NC(=O)N2CCCC2C(N)=O)sc1-c1ccnc(C(C)(C)C(F)(F)F)c1
104
4) CNC(=O)c1ccc(N2C(=S)N(c3ccc(C#N)c(C(F)(F)F)c3)C(=O)C2(C)C)cc1F + Cc1nc(NC(=O)N2CCCC2C(N)=O)sc1-c1ccnc(C(C)(C)C(F)(F)F)c1
123
5) CC1(C)CCC(Nc2ncc(C(F)(F)F)c(-c3c[nH]c4c(P(C)(C)=O)c(C#N)ccc34)n2)CN1 (stereo unspecified) + CC(Nc1ncnc2nc[nH]c12)c1cc2cccc(Cl)c2c(=O)n1-c1ccccc1
73.8
6) Cn1ncc(Cl)c1-c1cc(C(=O)NC(CN)Cc2cccc(F)c2)sc1Cl (stereo unspecified) + Cc1nc(NC(=O)N2CCCC2C(N)=O)sc1-c1ccnc(C(C)(C)C(F)(F)F)c1
107
7) C=CC(=O)N1CCN(c2nc(=O)n(-c3c(C)ccnc3C(C)C)c3nc(-c4c(O)cccc4F)c(F)cc23)C(C)C1 (stereo unspecified) + CC(Nc1ncnc2nc[nH]c12)c1cc2cccc(Cl)c2c(=O)n1-c1ccccc1
90.5
8) CCN1CCN(Cc2ccc(Nc3ncc(F)c(-c4cc(F)c5nc(C)n(C(C)C)c5c4)n3)nc2)CC1 + CC(Nc1ncnc2nc[nH]c12)c1cc2cccc(Cl)c2c(=O)n1-c1ccccc1
103
9) C=CC(=O)N1CCN(c2nc(=O)n(-c3c(C)ccnc3C(C)C)c3nc(-c4c(O)cccc4F)c(F)cc23)C(C)C1 (stereo unspecified) + Cc1nc(NC(=O)N2CCCC2C(N)=O)sc1-c1ccnc(C(C)(C)C(F)(F)F)c1
110
10) CCN1CCN(Cc2ccc(Nc3ncc(F)c(-c4cc(F)c5nc(C)n(C(C)C)c5c4)n3)nc2)CC1 + Cc1nc(NC(=O)N2CCCC2C(N)=O)sc1-c1ccnc(C(C)(C)C(F)(F)F)c1
88.9
11) C[C@@H](NC(=O)c1ncnc(N)c1Cl)c1ncc(C(=O)Nc2cc(C(F)(F)F)c(Cl)cn2)s1 + Cc1nc(NC(=O)N2CCCC2C(N)=O)sc1-c1ccnc(C(C)(C)C(F)(F)F)c1
108
